// reported pIC50 per item
Tested on: U87MG pLVX-IDH2 R140Q-neo cells
Assay: U87MG pLVX-IDH2 R140Q-neo cell based assay, 2-HG in media by LC-MS at 48 hours
Conditions: Homo sapiens, U-87 MG
pIC50: −log10 of the molar value.
REPORTED_METRIC: pIC50

In [3]: df
Out[3]:
                                    molecule                 target_or_system  reported_metric        result
 0  Fc1ccccc1-c1nc(Nc2ccnc(C(F)(F)F)c2)nc(NC2COC2)n1  U87MG pLVX-IDH2 R140Q-neo cells            pIC50        > 7.00
 1       CC(C)Nc1nc(Nc2ccon2)nc(-c2ccccc2)n1  U87MG pLVX-IDH2 R140Q-neo cells            pIC50  6.00 to 7.00
 2         CCNc1nc(Nc2ccncc2)nc(-c2ccccc2)n1  U87MG pLVX-IDH2 R140Q-neo cells            pIC50  6.00 to 7.00
 3  Fc1cncc(Nc2nc(NC3CCC3)nc(-c3ccccn3)n2)c1  U87MG pLVX-IDH2 R140Q-neo cells            pIC50        > 7.00
 4  CC(O)CNc1nc(Nc2ccnc(C(F)(F)F)c2)nc(-c2cccc(Cl)n2)n1 (centres unmarked)  U87MG pLVX-IDH2 R140Q-neo cells            pIC50        > 7.00
 5  c1ccc(Nc2nc(NC3CCCCC3)nc(-c3ccccc3)n2)cc1  U87MG pLVX-IDH2 R140Q-neo cells            pIC50        > 7.00
 6  CC(C)Nc1nc(Nc2cccc(F)c2)nc(-c2nc(C(F)(F)F)cs2)n1  U87MG pLVX-IDH2 R140Q-neo cells            pIC50        > 7.00
 7  Fc1ccc(Nc2nc(NC3COC3)nc(-c3cccc(C(F)(F)F)n3)n2)cn1  U87MG pLVX-IDH2 R140Q-neo cells            pIC50  6.00 to 7.00
 8     CC(C)CNc1nc(Nc2ccncc2)nc(-c2ccccc2)n1  U87MG pLVX-IDH2 R140Q-neo cells            pIC50        > 7.00
 9  CC(C)(O)CNc1nc(Nc2ccncc2)nc(-c2ccccc2)n1  U87MG pLVX-IDH2 R140Q-neo cells            pIC50  5.00 to 6.00
10  CC(C)CNc1nc(Nc2ccnc(C(F)(F)F)c2)nc(-c2cccc(N)n2)n1  U87MG pLVX-IDH2 R140Q-neo cells            pIC50        > 7.00
11  O=C(Nc1nc(Nc2ccccc2)nc(-c2ccccc2)n1)OCC1CC1  U87MG pLVX-IDH2 R140Q-neo cells            pIC50  6.00 to 7.00
12   CC(C)(C)Nc1nc(Nc2ccccc2)nc(-c2ccccc2)n1  U87MG pLVX-IDH2 R140Q-neo cells            pIC50  6.00 to 7.00
13  CS(=O)(=O)c1cccc(Nc2nc(NC3CCOCC3)nc(-c3ccccc3)n2)c1  U87MG pLVX-IDH2 R140Q-neo cells            pIC50        > 7.00
14  OC1(CNc2nc(Nc3cc(F)cc(F)c3)nc(-c3cccc(C(F)(F)F)n3)n2)CC1  U87MG pLVX-IDH2 R140Q-neo cells            pIC50        > 7.00
15  FC(F)(F)c1cc(Nc2nc(NC3CCOCC3)nc(-c3cccc(C(F)(F)F)n3)n2)ccn1  U87MG pLVX-IDH2 R140Q-neo cells            pIC50        > 7.00
16  CCOc1cc(Nc2nc(NC(C)C)nc(-c3ccccc3)n2)ccn1  U87MG pLVX-IDH2 R140Q-neo cells            pIC50        > 7.00
17  CC(C)(O)CNc1nc(Nc2cncc(C(F)(F)F)c2)nc(-c2cccc(C(F)(F)F)n2)n1  U87MG pLVX-IDH2 R140Q-neo cells            pIC50        > 7.00
18  CC1(Nc2nc(Nc3ccnc(C(F)(F)F)c3)nc(-c3cccc(C(F)(F)F)n3)n2)COC1  U87MG pLVX-IDH2 R140Q-neo cells            pIC50        > 7.00
19  CC#Cc1cccc(-c2nc(Nc3cc(F)cc(F)c3)nc(NC(C)C)n2)n1  U87MG pLVX-IDH2 R140Q-neo cells            pIC50        > 7.00
20  CC(C)(C)CNc1nc(Nc2ccncc2)nc(-c2ccccc2)n1  U87MG pLVX-IDH2 R140Q-neo cells            pIC50        > 7.00
21  FC(F)(F)c1cc(Nc2nc(NC3COC3)nc(-c3cccc(Cl)n3)n2)ccn1  U87MG pLVX-IDH2 R140Q-neo cells            pIC50        > 7.00
22  CC(C)(CO)CNc1nc(Nc2ccnc(Cl)c2)nc(-c2ccccc2)n1  U87MG pLVX-IDH2 R140Q-neo cells            pIC50        > 7.00
23  CC(C)Nc1nc(Nc2ccnc(C(F)(F)F)c2)nc(-c2ccccc2F)n1  U87MG pLVX-IDH2 R140Q-neo cells            pIC50        > 7.00
24  COc1cc(F)cc(-c2nc(Nc3ccnc(C(F)(F)F)c3)nc(NC(C)C)n2)c1  U87MG pLVX-IDH2 R140Q-neo cells            pIC50  6.00 to 7.00
25  Nc1cccc(-c2nc(NCC(F)(F)F)nc(Nc3cc(F)cc(F)c3)n2)n1  U87MG pLVX-IDH2 R140Q-neo cells            pIC50        > 7.00
26  CC#Cc1cccc(-c2nc(Nc3cccc(F)c3)nc(NC(C)C)n2)n1  U87MG pLVX-IDH2 R140Q-neo cells            pIC50  6.00 to 7.00
27  CC(C)Nc1nc(Nc2cc(F)cc(F)c2)nc(-c2cnc(N)nc2)n1  U87MG pLVX-IDH2 R140Q-neo cells            pIC50  6.00 to 7.00
28   CC(C)Nc1nc(Nc2ccc(F)cc2)nc(-c2ccccc2)n1  U87MG pLVX-IDH2 R140Q-neo cells            pIC50        > 7.00
29  CC1CC1Nc1nc(Nc2ccnc(C(F)(F)F)c2)nc(-c2cccc(C(F)(F)F)n2)n1 (centres unmarked)  U87MG pLVX-IDH2 R140Q-neo cells            pIC50        > 7.00
30  CC(C)Nc1nc(Nc2ccc(C3CC3)nc2)nc(-c2ccccc2)n1  U87MG pLVX-IDH2 R140Q-neo cells            pIC50  6.00 to 7.00
31  CCC(=O)c1cc(Nc2nc(NC(C)C)nc(-c3cccc(C(F)(F)F)n3)n2)ccn1  U87MG pLVX-IDH2 R140Q-neo cells            pIC50        > 7.00
32  CC(C)Nc1nc(Nc2ccnc(N3CCC3)c2)nc(-c2ccccc2)n1  U87MG pLVX-IDH2 R140Q-neo cells            pIC50  6.00 to 7.00
33  FC(F)(F)c1cc(Nc2nc(Nc3cncs3)nc(-c3cccc(C(F)(F)F)n3)n2)ccn1  U87MG pLVX-IDH2 R140Q-neo cells            pIC50        > 7.00
34  CC(C)Nc1nc(Nc2cncc(C(F)(F)F)c2)nc(-c2cccc(N)n2)n1  U87MG pLVX-IDH2 R140Q-neo cells            pIC50        > 7.00

----------
Target: IDH2 R172K (Homo sapiens, UniProt P48735, R172K)
Sequence (P48735 40-452 R172K): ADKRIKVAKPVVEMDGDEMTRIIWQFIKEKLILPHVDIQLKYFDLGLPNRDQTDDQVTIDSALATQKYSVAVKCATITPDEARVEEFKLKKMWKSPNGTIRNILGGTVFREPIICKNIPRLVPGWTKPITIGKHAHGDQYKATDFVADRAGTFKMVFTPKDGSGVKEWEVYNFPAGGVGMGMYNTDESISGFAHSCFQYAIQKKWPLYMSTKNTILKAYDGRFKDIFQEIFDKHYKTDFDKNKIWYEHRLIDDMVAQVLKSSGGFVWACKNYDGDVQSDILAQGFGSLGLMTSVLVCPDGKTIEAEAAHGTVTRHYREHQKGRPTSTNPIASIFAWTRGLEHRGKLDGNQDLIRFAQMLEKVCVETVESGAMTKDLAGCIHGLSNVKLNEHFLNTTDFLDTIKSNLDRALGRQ
Assay: IDH2 R172K enzymatic assay (NADPH cofactor depletion, diaphorase/resazurin readout)
Conditions: read-out: Enz R172K
pIC50: −log10 of the molar value.
REPORTED_METRIC: pIC50

                                smiles_data        result
0  CC(C)Nc1nc(Nc2ccnc(C(C)(F)F)c2)nc(-c2cccc(N)n2)n1  6.00 to 7.00
1  CC(C)Nc1nc(Nc2cncc(C#N)c2)nc(-c2ccccc2)n1  6.00 to 7.00
2  CC#Cc1cccc(-c2nc(Nc3cccc(F)c3)nc(NC(C)C)n2)n1  6.00 to 7.00
3    CC(C)Nc1nc(Nc2ccccc2)nc(-c2ccn[nH]2)n1  5.00 to 6.00
4  CC(C)Nc1nc(Nc2ccnc(C3(C)CC3)c2)nc(-c2cccc(C(F)(F)F)n2)n1        > 7.00
5  FC(F)(F)c1cc(Nc2nc(NCC3CC3)nc(-c3cccc(C(F)(F)F)n3)n2)ccn1        > 7.00
6  COC(=O)Nc1cccc(-c2nc(Nc3ccnc(C(F)(F)F)c3)nc(NC(C)C)n2)n1        < 5.00
7  CC(C)Nc1nc(Nc2ccc(F)nc2)nc(-c2cccc(Cl)n2)n1        > 7.00
